Origin of measurements: patent US9199981B2

- testTarget: c-kit (Homo sapiens (Human))
- experiment: Mo7e cell proliferation assay (SCF dependent proliferation)
- Type: cell-based
- measurementParameters: Mo7e cells stimulated with human recombinant SCF, 48 hours, 1% FBS
pIC50: −log10 of the molar value.
Reported pIC50 is given for each of the following molecules.
endpointName: pIC50

- Cc1ccc2ncc(C(=O)Nc3cc(-c4noc(COC5CC(F)(F)C5(F)F)n4)ccc3C)n2c1 (stereo not shown): 7.80
- Cc1ccc(-c2noc(C3CC(O)(C(F)(F)F)C3)n2)cc1NC(=O)c1cnc2cc(F)ccn12 (stereo not shown): 7.25
- Cc1ccc(-c2noc(COC3CC(F)(F)C3(F)F)n2)cc1NC(=O)c1cnc2ccccn12 (stereo not shown): 8.52
- COCc1n[nH]c(-c2ccc3ncc(C(=O)Nc4cc(-c5noc(C6CC(F)(F)C6)n5)ccc4C)n3c2)n1: 7.66
- Cc1ccc(-c2noc(C3CC(F)C3)n2)cc1NC(=O)c1cnc2ccccn12 (stereo not shown): 7.55
- Cc1ccc(-c2noc(C3CC(F)(F)C3)n2)cc1NC(=O)c1cnc2cc(-c3cn(CCO)nn3)ccn12: 7.80
- Cc1ccc(-c2noc(C3CC(F)(F)C3)n2)cc1NC(=O)c1cnc2ccc(N3CCOCC3)cn12: 7.59
- Cc1ccc(-c2noc(C3CCC(F)(F)CC3)n2)cc1NC(=O)c1cnc2ccccn12: 7.62
- Cc1ccc(-c2noc(C3CC3(F)F)n2)cc1NC(=O)c1cnc2ccccn12 (stereo not shown): 7.28
- Cc1ccc(-c2noc(C3(C(N)=O)CC3)n2)cc1NC(=O)c1cnc2ccc(F)cn12: 6.29
- Cc1ccc(-c2noc([C@@H]3C[C@H]3F)n2)cc1NC(=O)c1cnc2ccccn12: 7.25
- Cc1ccc(-c2noc(C3(C(F)(F)F)CC3)n2)cc1NC(=O)c1cnc2ccccn12: 6.79
- Cc1ccc(-c2noc(C3CC(F)(F)C3)n2)cc1NC(=O)c1cnc2ccc(COCC(F)(F)F)cn12: 7.10
- Cc1ccc(-c2noc([C@H]3C[C@H](NS(C)(=O)=O)C3)n2)cc1NC(=O)c1cnc2ccccn12: 6.84
- Cc1ccc(-c2noc(C3CC(=NOC(C)C)C3)n2)cc1NC(=O)c1cnc2ccccn12 (stereo not shown): 7.18
- COCC1(c2nc(-c3ccc(C)c(NC(=O)c4cnc5ccccn45)c3)no2)CC1: 7.31
- C=C1CC(c2nc(-c3ccc(C)c(NC(=O)c4cnc5ccccn45)c3)no2)C1: 7.80
- Cc1ccc(-c2noc(C3(O)CC3)n2)cc1NC(=O)c1cnc2ccccn12: 6.52
- Cc1ccc(-c2noc(C3CC(F)(F)C3)n2)cc1NC(=O)c1cnc2ccc(-n3cncc3C)cn12: 6.86
- Cc1ccn2c(C(=O)Nc3cc(-c4noc([C@H]5C[C@](O)(C(F)(F)F)C5)n4)ccc3C)cnc2c1: 7.60
- COCCOCc1ccc2ncc(C(=O)Nc3cc(-c4noc(C5CC(F)(F)C5)n4)ccc3C)n2c1 [F146]: 6.98
- Cc1ccc(-c2noc([C@H]3C[C@@](C)(O)C3)n2)cc1NC(=O)c1cnc2ccccn12: 6.92

###

- testTarget: c-kit (Homo sapiens (Human))
- experiment: Mo7e cell proliferation assay (SCF dependent proliferation)
- Assay type: cell-based
- measurementParameters: Mo7e cells stimulated with human recombinant SCF, 48 hours, 20% FBS (values marked *)
endpointName: IC50 (nM)

• Cc1ccc(-c2noc(C3CC(=O)C3)n2)cc1NC(=O)c1cnc2ccccn12 = 41
• Cc1ccc(-c2noc(C3CC(C)(O)C3)n2)cc1NC(=O)c1cnc2ccccn12 (centres unmarked) [F3] = 164
• Cc1ccc(-c2noc(C3CCC(=O)C3)n2)cc1NC(=O)c1cnc2ccccn12 (centres unmarked) = 58
• Cc1ccc(-c2nc(C3CC3)no2)cc1NC(=O)c1cnc2ccccn12 = 322
• Cc1ccc(-c2noc(C3CC(C)(O)C3)n2)cc1NC(=O)c1cnc2ccccn12 (centres unmarked) [F116] = 182

###

# IC50 listing for each entry below
- testTarget: UniProt P10721
- experiment: Mo7e cell proliferation assay (SCF dependent proliferation)
- Format: cell-based
- measurementParameters: Mo7e cells stimulated with human recombinant SCF, 48 hours, 1% FBS
endpointName: IC50 (nM)

- Cc1ccc(-c2noc([C@@H]3CC3(F)F)n2)cc1NC(=O)c1cnc2ccccn12 (stereo in doubt) [F88]: 66
- Cc1ccc(-c2noc(C3CC(n4cccn4)C3)n2)cc1NC(=O)c1cnc2ccccn12 (stereo not drawn) [F45]: 71
- COC(=O)NC1(c2nc(-c3ccc(C)c(NC(=O)c4cnc5ccccn45)c3)no2)CCC1 [F27]: 69

###

- testTarget: c-kit (Homo sapiens (Human))
- experiment: Mo7e cell proliferation assay (SCF dependent proliferation)
- Type: cell-based
- measurementParameters: Mo7e cells stimulated with human recombinant SCF, 48 hours, 1% FBS
pIC50: −log10 of the molar value.
If the reported pIC50 equals or exceeds 7, assign YES. If not, assign NO.

• Cc1ccc(-c2noc(C3CC(F)(F)C3)n2)cc1NC(=O)c1cnc2cc(C3CCN(S(C)(=O)=O)CC3)ccn12 = YES
• Cc1ccc(-c2noc(C3(NC(=O)OC(C)(C)C)CCC3)n2)cc1NC(=O)c1cnc2ccccn12 = NO
• Cc1ccc(-c2noc(C3CC(F)(F)C3)n2)cc1NC(=O)c1cnc2ccc(-c3cnn(CCO)c3)cn12 = YES
• Cc1ccc(-c2noc([C@H]3C[C@@H](O)C3)n2)cc1NC(=O)c1cnc2ccc(F)cn12 = NO
• Cc1ccc(-c2noc(C3CC(O)(C4CC4)C3)n2)cc1NC(=O)c1cnc2ccccn12 (stereo not drawn) = YES
• Cc1ccc(-c2noc(C3CC(F)(F)C3)n2)cc1NC(=O)c1cnc2ccc(-c3nnn[nH]3)cn12 = NO

###

- testTarget: c-kit (Homo sapiens (Human), UniProt P10721)
- Sequence (P10721 26-976): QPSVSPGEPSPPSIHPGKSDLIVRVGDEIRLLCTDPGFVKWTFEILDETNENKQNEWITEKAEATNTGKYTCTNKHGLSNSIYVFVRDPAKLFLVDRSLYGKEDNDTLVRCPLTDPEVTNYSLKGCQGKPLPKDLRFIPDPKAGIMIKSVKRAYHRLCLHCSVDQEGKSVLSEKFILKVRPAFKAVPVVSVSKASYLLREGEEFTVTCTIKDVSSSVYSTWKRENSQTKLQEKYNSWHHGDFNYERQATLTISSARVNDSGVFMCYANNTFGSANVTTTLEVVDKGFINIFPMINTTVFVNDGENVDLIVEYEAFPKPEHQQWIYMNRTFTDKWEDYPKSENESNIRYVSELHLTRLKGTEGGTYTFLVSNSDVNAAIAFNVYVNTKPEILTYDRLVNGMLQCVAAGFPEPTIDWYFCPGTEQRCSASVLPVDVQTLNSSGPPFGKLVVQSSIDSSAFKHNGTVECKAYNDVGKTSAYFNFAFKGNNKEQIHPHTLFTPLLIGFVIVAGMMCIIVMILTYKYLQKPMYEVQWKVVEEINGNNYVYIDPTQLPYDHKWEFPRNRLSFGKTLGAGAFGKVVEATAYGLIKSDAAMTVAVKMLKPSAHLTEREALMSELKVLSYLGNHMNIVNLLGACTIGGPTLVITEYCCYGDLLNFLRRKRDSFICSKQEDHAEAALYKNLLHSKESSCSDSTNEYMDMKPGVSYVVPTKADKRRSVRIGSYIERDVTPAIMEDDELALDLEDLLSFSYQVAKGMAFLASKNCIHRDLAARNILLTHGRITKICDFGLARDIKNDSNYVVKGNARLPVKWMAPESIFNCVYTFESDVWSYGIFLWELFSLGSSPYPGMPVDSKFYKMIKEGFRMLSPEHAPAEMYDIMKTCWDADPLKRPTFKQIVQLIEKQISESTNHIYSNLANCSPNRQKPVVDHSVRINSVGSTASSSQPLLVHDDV
- experiment: Mo7e cell proliferation assay (SCF dependent proliferation)
- Type: cell-based
- measurementParameters: Mo7e cells stimulated with human recombinant SCF, 48 hours, 1% FBS
endpointName: IC50 (nM)

* Cc1ccc(-c2noc(C3(NC(=O)OC(C)(C)C)CC3)n2)cc1NC(=O)c1cnc2ccccn12 [F21] | 89
* Cc1ccc(-c2noc(C3CC(F)(F)C3)n2)cc1NC(=O)c1cnc2ccc(CCN3CCN(C)CC3)cn12 [F63] | 82
* Cc1ccc(-c2noc(CNC(=O)C3CC3(F)F)n2)cc1NC(=O)c1cnc2ccccn12 (stereo not drawn) [F140] | 132

###

- testTarget: c-kit (Homo sapiens (Human), UniProt P10721)
- experiment: Mo7e cell proliferation assay (SCF dependent proliferation)
- Format: cell-based
- measurementParameters: Mo7e cells stimulated with human recombinant SCF, 48 hours, 1% FBS
endpointName: IC50 (nM)

* Cc1ccc(-c2noc([C@@H]3C[C@@H]3F)n2)cc1NC(=O)c1cnc2ccccn12 [F101] | 67
* O=C(Nc1cc(-c2noc(C3CC(F)(F)C3)n2)ccc1F)c1cnc2ccc(-c3cnn(CCN4CCOCC4)c3)cn12 [F51] | 85
* Cc1ccn2c(C(=O)Nc3cc(-c4noc(C5CC5(F)F)n4)ccc3C)cnc2c1 (stereo not drawn) [F165] | 107
